# experimental.target: Beta Secretase enzyme (BACE) (Homo sapiens, UniProt P56817)
# Sequence (P56817 46-501, species assumed): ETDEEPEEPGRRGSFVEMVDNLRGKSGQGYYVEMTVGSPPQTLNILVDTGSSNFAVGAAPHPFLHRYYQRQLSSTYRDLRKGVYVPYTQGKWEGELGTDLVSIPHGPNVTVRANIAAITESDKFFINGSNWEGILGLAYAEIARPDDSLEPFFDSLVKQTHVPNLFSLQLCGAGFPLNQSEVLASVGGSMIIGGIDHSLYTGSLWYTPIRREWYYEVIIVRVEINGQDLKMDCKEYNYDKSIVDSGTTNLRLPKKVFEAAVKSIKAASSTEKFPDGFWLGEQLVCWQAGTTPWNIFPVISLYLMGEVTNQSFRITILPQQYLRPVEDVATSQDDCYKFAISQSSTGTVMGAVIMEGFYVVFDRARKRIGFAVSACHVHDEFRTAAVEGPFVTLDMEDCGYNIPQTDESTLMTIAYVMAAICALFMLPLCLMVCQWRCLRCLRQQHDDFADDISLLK
# test.protocol: In vitro enzymatic BACE FRET (fluorescence resonance energy transfer) assay
# Type: biochemical
# recorded.conditions: average IC50, enzyme assay; read-out: BACE 1 FRET assay
Assignment: determine reported IC50 for the given molecules.
Give bare numbers, in nM.

Below, 5 molecules whose answers are already recorded.
[[record]]
molecule = "Cc1ccc(-c2cc(F)c3c(c2)[C@]2(COC(N)=N2)c2cc(OCC4(C)COC4)ccc2O3)cn1 [Example 440]"
result = 11.7

[[record]]
molecule = "CN(C)c1ccc(-c2cc3c(cn2)Oc2ccc(-c4cccnc4F)cc2[C@@]32COC(N)=N2)cc1 [Example 567]"
result = 4.6

[[record]]
molecule = "NC1=N[C@@]2(CO1)c1cc(-c3cc(F)cnc3F)ccc1Oc1cnc(C3=CCOCC3)cc12 [Example 600]"
result = 17.7

[[record]]
molecule = "COc1cncc(-c2ccc3c(c2)[C@@]2(COC(N)=N2)c2cc(OCC(C)(C)C#N)cc(F)c2O3)c1 [Example 264]"
result = 1

[[record]]
molecule = "CC1(C#Cc2cnc3c(c2)[C@]2(CSC(N)=N2)c2cc(-c4cncc(F)c4)ccc2O3)COC1 [Example 964]"
result = 0.9


Could you report IC50 for every entry in the following list?
1. CC#Cc1cnc(F)c(-c2ccc3c(c2)[C@@]2(COC(N)=N2)c2cc(-c4ccnc(F)c4)cnc2O3)c1 [Example 956]
2. C1=C(c2cnc3c(c2)[C@]2(COC(NCc4ccccc4)=N2)c2cc(OCc4ccccc4)ccc2O3)CCOC1 [Example 968]

0.4
1260

Could you report IC50 for every entry in the following list?
1. CC#Cc1cncc(-c2ccc3c(c2)[C@@]2(COC(N)=N2)c2cc(-c4ccncc4)nc(F)c2O3)c1 [Example 739]
2. CC1(C)CC(c2cnc3c(c2)[C@]2(CSC(N)=N2)c2cc(-c4cncnc4)ccc2O3)=CCO1 [Example 669]
3. NC1=N[C@@]2(CO1)c1cc(-c3cccnc3F)ccc1Oc1cnc(-c3cncnc3)cc12 [Example 571]
4. CC(C)(C#N)COc1cc(F)c2c(c1)[C@]1(COC(N)=N1)c1cc(-c3cncc(F)c3)ccc1O2 [Example 272]
5. CC1(C)C[C@H](c2cnc3c(c2)[C@]2(COC(N)=N2)c2cc(-c4cccc(Cl)c4)ccc2O3)CCO1 [Example 473]
6. CC(C)(F)COc1cc(F)c2c(c1)[C@]1(CSC(N)=N1)c1cc(-c3cccnc3F)ccc1O2 [Example 1067]
7. NC1=N[C@@]2(CO1)c1cc(OCc3cccnc3)ccc1Oc1ncc(-c3ccnc(F)c3)cc12 [Example 974]
8. CC1(C#Cc2cncc(-c3ccc4c(c3)[C@@]3(COC(N)=N3)c3cc(Cl)ncc3O4)c2)COC1 [Example 810]

1. 0.5
2. 0.8
3. 6.6
4. 0.5
5. 2.1
6. 0.3
7. 110
8. 604

Could you report IC50 for every entry in the following list?
1. NC1=N[C@@]2(CO1)c1cc(-c3cccnc3F)ccc1Oc1c2ccnc1F [Example 658]
2. NC1=N[C@@]2(CO1)c1cc(O)ccc1Oc1ncc(C3=CCOCC3)cc12 [Example 969]
3. COc1cncc(-c2ccc3c(c2)[C@@]2(COC(N)=N2)c2cc(-c4ncccn4)ncc2O3)c1 [Example 687]
4. NC1=N[C@@]2(CO1)c1cc(OCc3cccnc3)ccc1Oc1ncc(-c3cccnc3)cc12 [Example 975]
5. NC1=N[C@@]2(CO1)c1cc(-c3cncc(F)c3)ccc1Oc1c(F)cc(N3CC4CCC(C3)O4)cc12 [Example 283]
6. NC1=N[C@@]2(CO1)c1cc(I)ccc1Oc1ncc(Br)cc12 [Example 1016]
7. NC1=N[C@@]2(CS1)c1cc(-c3cccnc3F)ccc1Oc1c(F)cc(C3=CCCOC3)cc12 [Example 802]
8. COc1ccc(-c2cnc3c(c2)[C@]2(CSC(N)=N2)c2cc(C#CC4(C)COC4)ccc2O3)cn1 [Example 941]

27.2
835
80.4
116
0.4
0.7
0.2
3.8

Could you report IC50 for every entry in the following list?
1. NC1=N[C@@]2(CO1)c1cc(-c3ccccc3)ccc1Oc1cnc(-c3ccccc3)cc12 [Example 142]
2. NC1=NC2(CS1)c1cc(-c3cccnc3F)ccc1Oc1c2cc(Cl)nc1F (stereo not shown) [Example 611]
3. CC1(COc2cc(F)c3c(c2)[C@]2(COC(N)=N2)c2cc(-c4cnccc4F)ccc2O3)COC1 [Example 604]
4. CC1(C#Cc2cc3c(nc2F)Oc2ccc(-c4cccnc4F)cc2[C@@]32COC(N)=N2)COC1 [Example 901]
5. CC(C)(F)COc1cc(F)c2c(c1)[C@]1(COC(N)=N1)c1cc(-c3ccc(F)nc3)ccc1O2 [Example 259]
6. NC1=N[C@@]2(CO1)c1cc(-c3cccnc3F)ccc1Oc1c2cc(C2=CCCCO2)nc1F [Example 657]
7. NC1=N[C@@]2(CO1)c1cc(-c3ccc(F)nc3)ccc1Oc1c(F)cc(N3CCOCC3)cc12 [Example 202]
8. NC1=N[C@]2(CS1)c1cc(-c3cccnc3F)ccc1Oc1cnc(-c3ccnc(F)c3)cc12 [Example 992]

15.8
6.1
0.6
0.5
2.7
0.4
4.9
42.5
